# maps each entry to its MIC
Test system: Streptococcus pyogenes
Method summary: Antibacterial activity against Streptococcus pyogenes ATCC 51339 incubated for 24 hrs by broth microdilution method
Assay type: functional
Test settings: ATCC 51339, 24 h

# annotated cases, reported MIC shown
INSERT INTO measurements (molecular_string, recorded_metric, result) VALUES
  ('CCNC(=O)Nc1cc(N2CCN(C)CC2)c(C(=O)Nc2nccs2)cn1', 'MIC', '> 64 µg/mL'),
  ('CCNC(=O)Nc1cc(Nc2ccccc2)c(C(=O)Nc2cccc(C)c2)cn1', 'MIC', '2 µg/mL'),
  ('CCNC(=O)Nc1ccc(C(=O)Nc2cc(C(=O)OC)ccn2)cn1', 'MIC', '> 64 µg/mL'),
  ('CCNC(=O)Nc1ccc(C(=O)Nc2ccccc2)cn1', 'MIC', '> 16 µg/mL');

Query: Write down MIC measured for item CCNC(=O)Nc1cc(Nc2ccccc2)c(C(=O)Nc2ccccc2)cn1
Response: 2 µg/mL

Query: Write down MIC measured for item CCNC(=O)Nc1cc(-c2ccccc2)c(C(=O)Nc2cccc(Cl)c2)cn1
Response: > 64 µg/mL

Query: Write down MIC measured for item CCNC(=O)Nc1ccc(C(=O)Nc2ccccc2Cl)cn1
Response: > 64 µg/mL

Query: Write down MIC measured for item CCNC(=O)Nc1ccc(C(=O)Nc2cccc(CC)c2)cn1
Response: > 256 µg/mL

Query: Write down MIC measured for item CCNC(=O)Nc1cc(-c2cccnc2)c(C(=O)Nc2nccs2)cn1
Response: 64 µg/mL

Query: Write down MIC measured for item CCNC(=O)Nc1cc(NC2CCCCC2)c(C(=O)Nc2cccc(C)c2)cn1
Response: > 64 µg/mL

Query: Write down MIC measured for item CCNC(=O)Nc1ccc(C(=O)Nc2nccs2)cn1
Response: > 64 µg/mL

====

Target: DNA topoisomerase 4 subunit B (Staphylococcus aureus)
Method summary: Inhibition of Staphylococcus aureus ParE
pIC50: −log10 of the molar value.
Recorded metric: pIC50

[a] CCNC(=O)Nc1cc(Nc2ccc(O)cc2)c(C(=O)Nc2cccnc2)cn1
[b] CCNC(=O)Nc1cc(Nc2ccc(OC)cc2OC)c(C(=O)Nc2cccnc2)cn1
Query: // pick min by pIC50: a , b State the label of the item chosen.
Response: b
(b: 6.10, a: 7.07)

====

Tested on: Haemophilus influenzae
Method summary: Antibacterial activity against Haemophilus influenzae ATCC 49247 incubated for 24 hrs by broth microdilution method
Type: functional
Test settings: ATCC 49247, 24 h
Recorded metric: MIC

Query: Write down MIC measured for item CCNC(=O)Nc1cc(N2CCN(C)CC2)c(C(=O)Nc2cccnc2)cn1
Response: > 64 µg/mL

====

Tested on: Streptococcus pyogenes
Method summary: Antibacterial activity against Streptococcus pyogenes ATCC 51339 incubated for 24 hrs by broth microdilution method
Type: functional
Test settings: ATCC 51339, 24 h
Recorded metric: MIC (µg/mL)

INSERT INTO measurements (molecular_string, recorded_metric, measured_number) VALUES
  ('CCNC(=O)Nc1cc(Nc2ccccc2)c(C(=O)Nc2cccc(Cl)c2)cn1', 'MIC', 4),
  ('CCNC(=O)Nc1cc(-n2ccnc2)c(C(=O)Nc2cccc(Cl)c2)cn1', 'MIC', 64),
  ('CCNC(=O)Nc1ccc(C(=O)Nc2cccc(Cl)c2)cn1', 'MIC', 16),
  ('CCNC(=O)Nc1ccc(C(=O)Nc2cccnc2)cn1', 'MIC', 32),
  ('CCNC(=O)Nc1cc(Nc2ccccc2)c(C(=O)NCc2cccnc2)cn1', 'MIC', 1);

[P] CCNC(=O)Nc1cc(NCc2cccnc2)c(C(=O)Nc2cccnc2)cn1
[Q] CCNC(=O)Nc1cc(Nc2cccnc2)c(C(=O)Nc2ccccc2)cn1
[R] CCNC(=O)Nc1ccc(C(=O)Nc2ccncc2)cn1
Query: Descending sort on MIC required. Answer by naming the labels in the order asked.
Response: R, P, Q
(R: 64 µg/mL, P: 8 µg/mL, Q: 1 µg/mL)

Values were extracted from ChEMBL document CHEMBL3351278.
